Species: Rattus norvegicus
Assay: Tested for their ability to enhance memory in the adult rats using social recognition memory test
Assay type: functional
Response key: 1 means Dose >= 0.3 mg/kg; -1 means Dose < 0.3 mg/kg.

Is Dose at least 0.3 mg/kg? Consider S=C(NC1CCCCC1)N1CCC(c2cnc[nH]2)CC1 [THIOPERAMIDE]
1

For this molecule, is measured Dose 0.3 mg/kg or higher? C[C@@H]1CCCN1CCc1cc2cc(-c3cccc(C#N)c3)ccc2o1
-1

Is Dose at least 0.3 mg/kg? Consider Cc1ccc(C(=O)c2ccc3oc(CCN4CCC[C@H]4C)cc3c2)cc1
1

Could you verify whether the entry C[C@@H](NC(=O)c1ccco1)C(=O)N1CCN(CCCOc2ccc(C(=O)C3CC3)cc2)CC1 shows Dose of no less than 0.3 mg/kg?
1

API: above_or_equal(metric=Dose, cutoff=0.3 mg/kg) for item C[C@@H](N)C(=O)N1CCN(CCCOc2ccc(C(=O)C3CC3)cc2)CC1
1

Does C[C@@H]1CCCN1CCc1cc2cc(-c3ccc(C#N)cc3)ccc2o1 have a reported Dose of at least 0.3 mg/kg?
-1

API: above_or_equal(metric=Dose, cutoff=0.3 mg/kg) for item C[C@@H]1CCCN1CCc1cc2cc(C(=O)c3ccc(F)cc3)ccc2o1
-1
